All values here come from PubChem BioAssay AID2060619.

System: 323965-272-R-J2-PDC complex spheroid viability;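 further: spheroids exposed to agents for seven days before readout; percent of DMSO vehicle control wells so 100% = untreated growth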
Assay: Anticancer human tumor 323965-272-R-J2-PDC patient-derived pancreatic carcinoma cell line growth inhibition [CLK]
Details: second compound 1 µM; first compound 3.16 µM; hits give low values
Readout label: viability, T/C (%)
Numbers only, in %.

A selection of reference data follows.
• C#Cc1c(F)ccc2cc(O)cc(-c3ncc4c(N5CC6CCC(C5)N6)nc(OCC56CCCN5CC(F)C6)nc4c3F)c12 (stereo not given) + CN1CCN(c2cc(C(=O)Nc3cc4cc(-c5cnn(C)c5)ccc4cn3)ccn2)CC1 = 2.52
• CC1(C)CCC(CN2CCN(c3ccc(C(=O)NS(=O)(=O)c4ccc(NCC5CCOCC5)c([N+](=O)[O-])c4)c(Oc4cnc5[nH]ccc5c4)c3)CC2)=C(c2ccc(Cl)cc2)C1 + CNC(=O)c1ccc(Nc2nc(OC3CCCC3)c3c(-c4ccc5nc(C)oc5c4)c[nH]c3n2)c(OC)c1 = 36.1
• CCCS(=O)(=O)Nc1ccc(F)c(C(=O)c2c[nH]c3ncc(-c4ccc(Cl)cc4)cc23)c1F + CN1CCN(c2cc(C(=O)Nc3cc4cc(-c5cnn(C)c5)ccc4cn3)ccn2)CC1 = 4.19
• CC(CO)NC(=O)c1cc(-c2ccc(Cl)cc2)nn(-c2cnn(C)c2)c1=O (stereo not given) + CN1CCN(c2cc(C(=O)Nc3cc4cc(-c5cnn(C)c5)ccc4cn3)ccn2)CC1 = 3.03

Field: next molecule
Enquiry: Sample C#Cc1c(F)ccc2cc(O)cc(-c3ncc4c(N5CC6CCC(C5)N6)nc(OCC56CCCN5CC(F)C6)nc4c3F)c12 (stereo not given) + CNC(=O)c1ccc(Nc2nc(OC3CCCC3)c3c(-c4ccc5nc(C)oc5c4)c[nH]c3n2)c(OC)c1 — what was its viability, T/C?
Return: 30.8
